Measured pKd, listed per entry for reference.
Biological target: EGFRvIII-Fc fusion antigen (human, UniProt P00533 25-645)
Experiment: SPR Biacore T200, EGFRvIII-Fc captured via anti-hu Fc, scFv analyte, 1:1 model;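 also: Multi-cycle kinetics on a CM5 chip in HBS-P+ running buffer, 180 s scFv association then 540 s dissociation, with blank flow cell signals subtracted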
FYI, pKd means -log10 of a concentration in mol per litre.

As a guide, the following entries are already answered.
binder	pKd
scFv 478 (scFv, V domains shown, One-chain scFv, His-tagged) VH: EVQLVQSGAEVKKPGESLKISCKGSGYSFNSYWIGWVRQMPGKGLEWMGIIYPGDEDTRYSPSFQGQVTISADKSISTAYLQWSSLKASDTAMYYCARLGSSWTNDAFDIWGQGTLVTVSS VL: SYELTQPPSVSVSPGQTARITCSGDALPKQYAYWYQQKPGQAPVLVIYKDTERPSGIPERFSGSSSGTTVTLTISGVQAEDEADYYCQSVDPSGTYVVFGGGTKLTVL	9.80
scFv 469 (scFv, V domains shown, One-chain scFv, His-tagged) VH: EVQLVQSGAEVKKPGESLKISCKGSGYSFNSYWIGWVRQMPGKGLEWMGIIYPGDSDTRYSPSFQGQVTISADKSISTAYLQWSSLKASDTAMYYCARLGSSWTNDAFDIWGQGTLVTVSS VL: SYELTQPPSVSVSPGQTARITCSGDTLPKQYAYWYQQKPGQAPVLVIYKDSERPSGIPERFSGSSSGTTVTLTISGVQAEDEADYYCQSVDVSGTYVVFGGGTKLTVL	9.14

Input: For scFv 475 (scFv, V domains shown, One-chain scFv, His-tagged) VH: EVQLVQSGAEVKKPGESLKISCKGSGYSFTSYWIGWVRQMPGKGLEWMGIIYPDDSDTRYSPSFQGQVTISADKSISTAYLQWSSLKASDTAMYYCARLGSSWTNDAFDIWGQGTLVTVSS VL: SYELTQPPSVSVSPGQTARITCSGDALPKQYAYWYQQKPGQAPVLVIYKDTERPSGIPERFSGSSSGTTVTLTISGVQAEDEADYYCQSVDSSGTYVVFGGGTKLTVL , what is its reported pKd?
Output: 9.15

Cited source for all entries: patent US20160152728A1
